Listing: IC50 of selected compounds
- Test system: RPMI-8226
- test: Antiproliferative activity against human RPMI8226 cells after 10 days by MTS assay
- Format: functional, cell-based
- details: RPMI-8226, 240 h
measuredEndpoint: IC50

INSERT INTO results (compound, resultvalue) VALUES
  ('N[C@H]1CC[C@H](N[C@H]2[C@H]3Cc4ccccc4[C@H]32)CC1 (racemic)', '> 20 µM'),
  ('NC1CCC(N[C@@H]2C[C@H]2c2ccccc2)CC1 (stereo partly drawn)', '> 20 µM'),
  ('N[C@H]1CC[C@@H](N[C@H]2[C@H]3Cc4ccccc4[C@H]32)CC1 (racemic)', '> 20 µM');

All figures here come from ChEMBL document CHEMBL4130492.
